Item-by-item account of IC50
Target: LTC4S (Homo sapiens (Human))
Assay: Human whole blood HTRF assay (LTC4 release after calcium ionophore A23187)
Assay type: cell-based
Conditions: human whole blood diluted 1:3, 4 h incubation, calcium ionophore A23187 stimulation, LTC4 by HTRF; read-out: human whole blood HTRF IC50
Metric: IC50 (nM)

> print(dat)
                           structure.smiles  metric  reported.result
1  O=C1CCCC2(CCN(c3nccc(C(F)(F)F)n3)CC2)N1c1ccc(Cl)c(F)c1    IC50              180
2  O=C1CCCC2(CCN(c3cnnc(N4CCC(O)(C(F)(F)F)CC4)c3)CC2)N1c1ccc(F)c(F)c1    IC50              410
3  O=C1CCCC2(CCN(c3cc(-n4cc(F)cn4)ncn3)CC2)N1c1ccc(F)c(F)c1    IC50               17
4  O=C1CCCC2(CCN(c3cc(C(F)(F)C(F)(F)F)nc(CO)n3)CC2)N1c1ccc(F)c(F)c1    IC50               56
5  O=C1CCCC2(CCN(c3cc(-c4ccc(F)cc4)cc[n+]3[O-])CC2)N1c1ccc(Cl)c(F)c1    IC50               56

----------
Target: LTC4S (Homo sapiens (Human), UniProt Q16873)
Assay: Human whole blood HTRF assay (LTC4 release after calcium ionophore A23187)
Assay type: cell-based
Conditions: human whole blood diluted 1:3, 4 h incubation, calcium ionophore A23187 stimulation, LTC4 by HTRF; read-out: human whole blood HTRF IC50
# strict inequality: IC50 < 40 nM yields true, everything else yields false

> print(dat)
                                    molecule  discrete.label
 1  Nc1nc(N2CCC3(CCCC(=O)N3c3ccc(F)c(F)c3)CC2)c(F)c(-n2cccn2)n1           false
 2  CC(Oc1cc(N2CCC3(CCCC(=O)N3c3ccc(F)c(F)c3)CC2)nc(N)n1)C(F)(F)F (racemic)            true
 3  Nc1nc(OC2CCOCC2)cc(N2CCC3(CC2)C[C@H](F)CC(=O)N3c2ccc(F)c(F)c2)n1 (single isomer, unassigned) [Example 116b]            true
 4  O=C1CCCC2(CCN(c3cc(O[C@@H]4COC[C@H]4F)nc(CO)n3)CC2)N1c1ccc(F)c(F)c1 (racemic)            true
 5  O=C1CCCC2(CCN(c3cc(OC4COC4)nc(C(F)(F)F)n3)CC2)N1c1ccc(F)c(F)c1            true
 6  O=C1CCCC2(CCN(c3ncc(C4CCCCC4)o3)CC2)N1c1ccc(Cl)c(F)c1           false
 7  Nc1nc(-c2ccc(F)cc2)cc(N2CCC3(CCCC(=O)N3c3ccc(F)c(F)c3)CC2)n1            true
 8  O=C1CCCC2(CCN(c3cc(-n4cc(Cl)cn4)ncn3)CC2)N1c1ccc(F)c(F)c1            true
 9  CCCOc1ccnc(N2CCC3(CCCC(=O)N3c3ccc(F)c(F)c3)CC2)n1           false
10  O=C1CCCC2(CCN(c3cc(O[C@H]4CCOC4)nc(Cl)n3)CC2)N1c1ccc(F)c(F)c1           false
11  Nc1nc(N2CCC3(CCCC(=O)N3c3ccc(F)c(F)c3)CC2)cc(C(F)(F)F)n1           false
12  O=C1CCCC2(CCN(c3cc(OC4CCOCC4)nc(CO)n3)CC2)N1c1ccc(F)c(F)c1           false
13  Nc1nc(O[C@@H]2COC[C@H]2F)cc(N2CCC3(CCCC(=O)N3c3ccc(F)c(F)c3)CC2)n1 (racemic)            true
14  O=C1CCCC2(CCN(c3cc(-n4cc(C(F)(F)F)cn4)ncn3)CC2)N1c1ccc(F)c(F)c1            true
15  CC(C)Oc1cc(N2CCC3(CCCC(=O)N3c3ccc(F)c(F)c3)CC2)nc(N)n1            true
16  Nc1nc(O[C@H]2CCOC[C@@H]2F)cc(N2CCC3(CCCC(=O)N3c3ccc(F)c(F)c3)CC2)n1 (racemic)            true
17  Nc1nc(O[C@H]2COC[C@H]2F)cc(N2CCC3(CCCC(=O)N3c3ccc(F)c(F)c3)CC2)n1 (racemic)            true
18  Nc1nc(C2=CCC(F)(F)CC2)cc(N2CCC3(CCCC(=O)N3c3ccc(F)c(F)c3)CC2)n1            true
19  O=C1CCCC2(CCN(c3cc(OCC(F)(F)F)nc(Cl)n3)CC2)N1c1ccc(F)c(F)c1           false
20  O=C1CCCC2(CCN(c3nsc(N4CCCC4)n3)CC2)N1c1ccc(Cl)c(F)c1           false
21  O=C1CCCC2(CCN(c3cc(-n4cc(C(F)(F)F)cn4)nc(CO)n3)CC2)N1c1ccc(F)c(F)c1 [Example 66]            true
22  O=C1CCCC2(CCN(c3ncn(-c4ccc(F)cc4)n3)CC2)N1c1ccc(Cl)c(F)c1            true
23  O=C1CCCC2(CCN(c3cnn(-c4ccc(F)cc4)n3)CC2)N1c1ccc(Cl)c(F)c1           false
24  O=C1CCCC2(CCN(c3nsc(N4CCC(F)(F)C4)n3)CC2)N1c1ccc(Cl)c(F)c1           false
25  Cn1cc(-c2ccc(F)cc2)nc(N2CCC3(CCCC(=O)N3c3ccc(Cl)c(F)c3)CC2)c1=O           false
26  O=C1CCCC2(CCN(c3cc(OCC(F)(F)F)n[nH]c3=O)CC2)N1c1ccc(F)c(F)c1            true
27  O=C1CCCC2(CCN(c3cc(O[C@H]4CCOC4)nc(CO)n3)CC2)N1c1ccc(F)c(F)c1            true
28  O=C1CCCC2(CCN(c3nc(-c4ccc(F)cc4)n[nH]3)CC2)N1c1ccc(Cl)c(F)c1           false
29  Nc1nc(N2CCC3(CCCC(=O)N3c3ccc(F)c(F)c3)CC2)c(F)c(N2CCC(O)(C(F)(F)F)CC2)n1            true
30  O=C1CCCC2(CCN(c3nncc(C4CCCC4)n3)CC2)N1c1ccc(Cl)c(F)c1           false
